- System: LG0567-F671-PDC complex spheroids viability;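 also: spheroids exposed to compound for seven days before readout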
- measurement-protocol: Anticancer human tumor LG0567-F671-PDC patient-derived lung adenocarcinoma cell line growth inhibition [RAS]; active = viability on the fitted dose curve at most 10% of control; inactive = the rest
- conditions: second compound 0.003 µM; first compound 3.16 µM
// classify into YES (active), NO (inactive)

CC(=O)OC12COC1CC(O)C1(C)C(=O)C(O)C3=C(C)C(OC(=O)C(O)C(NC(=O)OC(C)(C)C)c4ccccc4)CC(O)(C(OC(=O)c4ccccc4)C21)C3(C)C (centres undefined) + CCn1c(-c2cc(N3CCN(C)CC3)cnc2C(C)OC)c2c3cc(ccc31)-c1csc(n1)CC(NC(=O)C1CC1C)C(=O)N1CCCC(N1)C(=O)OCC(C)(C)C2 :: YES

[ask] Write down the call the test reported for this molecule. Item: CC1(O)CCCC1n1c(=O)c(C(F)F)cc2cnc(NC3CCN(S(C)(=O)=O)CC3)nc21 (centres undefined) + CCn1c(-c2cccnc2C(C)OC)c2c3cc(ccc31)N1CCOC(CC(NC(=O)C(C(C)C)N(C)C(=O)C3(F)CCN(C(=O)C#CC(C)(C)N(C)C)CC3)C(=O)N3CCCC(N3)C(=O)OCC(C)(C)C2)C1
[reply] NO

[ask] Write down the call the test reported for this molecule. Item: C[C@@H](NC(=O)c1ncnc(N)c1Cl)c1ncc(C(=O)Nc2cc(C(F)(F)F)c(Cl)cn2)s1 + CCn1c(-c2cc(N3CCN(C)CC3)cnc2C(C)OC)c2c3cc(ccc31)-c1csc(n1)CC(NC(=O)C1CC1C)C(=O)N1CCCC(N1)C(=O)OCC(C)(C)C2
[reply] NO

[ask] Write down the call the test reported for this molecule. Item: Cc1nc(N2CCC3(CC2)COC(C)C3N)c(CO)nc1Sc1ccnc(N)c1Cl (centres undefined) + CCn1c(-c2cccnc2C(C)OC)c2c3cc(ccc31)N1CCOC(CC(NC(=O)C(C(C)C)N(C)C(=O)C3(F)CCN(C(=O)C#CC(C)(C)N(C)C)CC3)C(=O)N3CCCC(N3)C(=O)OCC(C)(C)C2)C1
[reply] YES
